This collection of values is drawn from paper PMC12207370.

target: CP-03; experiment: SPR

- Binder: "CD59 (immobilized for SPR) (receptor) LQCYNCPNPTADCKTAVNCSSDFDACLITKAGLQVYNKCWKFEHCNFNDVTTRLRENELTYYCCKKDLCNFNEQLEN"
  Kd: "23.4 nM"
